system: Hepatitis B virus; test: Antiviral activity against wild type HBV infected in human HepG2 2.2.15 cells assessed as reduction in viral replication by DNA HYB (Vision)/neutral red (Tox) assay; format: functional, organism-based; conditions: HepG2.2.15
pEC50: −log10 of the molar value.
value-kind: pEC50

[[record]]
compound = "Nc1ccn([C@@H]2CS[C@H](CO)O2)c(=O)n1 [LAMIVUDINE]"
data_value = 7.40

[[record]]
compound = "C#CC(CO)(Cn1cnc2c(=O)[nH]c(N)nc21)OCP(=O)(O)O (configuration not stated)"
data_value = 6.51


====

system: Human betaherpesvirus 5; assay: Antiviral activity against HCMV AD-169 infected in HFF cells assessed as reduction in viral replication measured after 14 days; format: functional, organism-based; conditions: Human betaherpesvirus 5, AD-169, HFF, 336 h; time 14 day
Property: EC90; scope: individual molecules
value-kind: EC90

[[record]]
molecule = "Nc1nc2c(ncn2COC(CO)CO)c(=O)[nH]1"
data_value = "74.2 µM"

[[record]]
molecule = "C#CC(CO)(Cn1ccc(N)nc1=O)OCP(=O)(O)O (racemic)"
data_value = "> 30 µM"

[[record]]
molecule = "C#CC(CO)(Cn1cc(C)c(=O)[nH]c1=O)OCP(=O)(O)O (racemic)"
data_value = "> 30 µM"

[[record]]
molecule = "C#CC(CO)(Cn1cnc2c(N)ncnc21)OCP(=O)(O)O (racemic)"
data_value = "> 30 µM"

[[record]]
molecule = "C#CC(CO)(Cn1cnc2c(=O)[nH]c(N)nc21)OCP(=O)(O)O (stereo unspecified)"
data_value = "> 150 µM"

[[record]]
molecule = "C#CC(CO)(Cn1ccc(=O)[nH]c1=O)OCP(=O)(O)O (racemic)"
data_value = "> 150 µM"


====

Property: CC50; scope: individual molecules
assay: Cytotoxicity against human HFF cells infected with HCMV AD-169 virus assessed as reduction in cell viability by cell titer-glo assay; assay type: toxicity, cell-based
value-kind: CC50 (µM)

[[record]]
molecule = "Nc1nc2c(ncn2COC(CO)CO)c(=O)[nH]1"
value_kind = "CC50"
quantity_unit = "µM"
result_comparator = ">"
data_value = 150

[[record]]
molecule = "C#CC(CO)(Cn1ccc(N)nc1=O)OCP(=O)(O)O (racemic)"
value_kind = "CC50"
quantity_unit = "µM"
result_comparator = "="
data_value = 132

[[record]]
molecule = "C#CC(CO)(Cn1cnc2c(N)ncnc21)OCP(=O)(O)O (racemic)"
value_kind = "CC50"
quantity_unit = "µM"
result_comparator = "="
data_value = 145

[[record]]
molecule = "C#CC(CO)(Cn1cnc2c(=O)[nH]c(N)nc21)OCP(=O)(O)O (stereo unspecified)"
value_kind = "CC50"
quantity_unit = "µM"
result_comparator = ">"
data_value = 150

[[record]]
molecule = "C#CC(CO)(Cn1cc(C)c(=O)[nH]c1=O)OCP(=O)(O)O (racemic)"
value_kind = "CC50"
quantity_unit = "µM"
result_comparator = "="
data_value = 140

[[record]]
molecule = "C#CC(CO)(Cn1ccc(=O)[nH]c1=O)OCP(=O)(O)O (racemic)"
value_kind = "CC50"
quantity_unit = "µM"
result_comparator = ">"
data_value = 150


====

Property: CC50; scope: individual molecules
assay: Cytotoxicity against human HFF cells infected with VZV Ellen virus assessed as reduction in cell viability by cell titer-glo assay; assay type: toxicity, cell-based
value-kind: CC50 (µM)

[[record]]
molecule = "C#CC(CO)(Cn1cnc2c(N)ncnc21)OCP(=O)(O)O (racemic)"
quantity_unit = "µM"
result_comparator = "="
data_value = 131

[[record]]
molecule = "C#CC(CO)(Cn1cc(C)c(=O)[nH]c1=O)OCP(=O)(O)O (racemic)"
quantity_unit = "µM"
result_comparator = "="
data_value = 139

[[record]]
molecule = "C#CC(CO)(Cn1ccc(=O)[nH]c1=O)OCP(=O)(O)O (racemic)"
quantity_unit = "µM"
result_comparator = ">"
data_value = 150

[[record]]
molecule = "C#CC(CO)(Cn1cnc2c(=O)[nH]c(N)nc21)OCP(=O)(O)O (stereo not given)"
quantity_unit = "µM"
result_comparator = ">"
data_value = 150

[[record]]
molecule = "C#CC(CO)(Cn1ccc(N)nc1=O)OCP(=O)(O)O (racemic)"
quantity_unit = "µM"
result_comparator = ">"
data_value = 150

